Tested on: myo-inositol dehydrogenase
Assay: Substrate specificity of myo-inositol dehydrogenase
Format: biochemical, Bacillus sp. No. 3
Details: myo-inositol = 100%
result_type: Substrate specificity (relative activity) (%)

[
  {
    "compound": "OC[C@H]1O[C@H](O[C@H]2[C@H](O)[C@@H](O)[C@H](O)O[C@@H]2CO)[C@H](O)[C@@H](O)[C@@H]1O",
    "reading": 0
  },
  {
    "compound": "O[C@H]1[C@H](O)[C@@H](O)[C@H](O)[C@@H](O)[C@H]1O",
    "reading": 100
  },
  {
    "compound": "O=C(CO)[C@@H](O)[C@H](O)[C@H](O)CO",
    "reading": 0
  },
  {
    "compound": "OC[C@H]1O[C@@](CO)(O[C@H]2O[C@H](CO)[C@@H](O)[C@H](O)[C@H]2O)[C@@H](O)[C@@H]1O",
    "reading": 0
  },
  {
    "compound": "OC[C@H]1O[C@@H](O[C@H]2[C@H](O)[C@@H](O)C(O)O[C@@H]2CO)[C@H](O)[C@@H](O)[C@H]1O (stereo partly drawn)",
    "reading": 0
  },
  {
    "compound": "OC[C@@H](O)[C@@H](O)[C@H](O)[C@@H](O)CO",
    "reading": 0
  }
]
